meta.source: paper PMC3950713

ASSAY TARGET: T1, HpDprA(5-217)H8E (Helicobacter pylori 26695, UniProt O25100 5-217, H8E)
T1 sequence: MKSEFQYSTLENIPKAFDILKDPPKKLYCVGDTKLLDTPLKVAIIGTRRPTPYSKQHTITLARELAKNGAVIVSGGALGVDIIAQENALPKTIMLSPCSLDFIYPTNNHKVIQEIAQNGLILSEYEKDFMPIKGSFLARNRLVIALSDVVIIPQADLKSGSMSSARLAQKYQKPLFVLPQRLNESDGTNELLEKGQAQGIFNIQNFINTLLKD
TEST PROTOCOL: MST
MEASUREMENT KIND: pKd
Bear in mind: pKd is minus log10 of a mol/L concentration; give just that figure.

Q: Fill in pKd for record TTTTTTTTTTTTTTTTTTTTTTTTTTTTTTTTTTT (ssDNA) [dT35]
Ans: 7.18
